SYSTEM NAME: HCV1b NS5B polymerase delta 21 (Hepatitis C virus genotype 1b, UniProt P26663)
Construct: purified HCV1b NS5B polymerase delta 21
Sequence (P26663 2420-2989): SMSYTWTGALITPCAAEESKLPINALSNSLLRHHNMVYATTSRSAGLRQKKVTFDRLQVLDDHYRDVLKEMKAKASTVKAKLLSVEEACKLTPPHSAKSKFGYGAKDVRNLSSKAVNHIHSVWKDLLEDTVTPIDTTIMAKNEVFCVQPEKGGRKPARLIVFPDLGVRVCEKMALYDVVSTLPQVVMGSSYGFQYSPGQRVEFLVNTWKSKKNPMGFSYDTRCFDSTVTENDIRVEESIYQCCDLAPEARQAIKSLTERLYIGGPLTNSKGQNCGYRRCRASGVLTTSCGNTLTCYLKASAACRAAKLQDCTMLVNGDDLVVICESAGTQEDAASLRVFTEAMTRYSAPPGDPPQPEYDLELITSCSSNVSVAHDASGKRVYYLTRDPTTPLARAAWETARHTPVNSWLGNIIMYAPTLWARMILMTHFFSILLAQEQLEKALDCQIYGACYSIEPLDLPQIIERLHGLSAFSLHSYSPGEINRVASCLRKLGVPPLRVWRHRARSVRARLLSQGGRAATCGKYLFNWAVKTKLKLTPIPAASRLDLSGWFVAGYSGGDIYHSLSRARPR
PROTOCOL TEXT: RNA-Dependent RNA HCV NS5B (Polymerase) Assay and IC50 Determination
Type: biochemical
CONDITION INFO: purified HCV1b NS5B polymerase delta 21, polyA:U16, RT 60 min, triplicate assays

# COMPOUND, SYSTEM NAME, IC50
rows = [
    ("CC1CCC(C2=C(c3cc(-c4ccccc4)sc3C(=O)O)CCN(Cc3ccccc3)C2)CC1 (stereo not shown)", "HCV1b NS5B polymerase delta 21 (Hepatitis C virus genotype 1b, UniProt P26663)", "3 to 10 µM"),
]

---

SYSTEM NAME: HCV1b NS5B polymerase delta 21 (Hepatitis C virus genotype 1b, UniProt P26663)
Construct: purified HCV1b NS5B polymerase delta 21
PROTOCOL TEXT: RNA-Dependent RNA HCV NS5B (Polymerase) Assay and IC50 Determination
Type: biochemical
Reported values of IC50 for individual entries
ASSAY ENDPOINT: IC50

# MOLECULE, SYSTEM NAME, ASSAY ENDPOINT, ASSAY RESULT
measured = [
    ("CCN1CCC(c2cc(-c3ccc(NC(C)=O)cc3)sc2C(=O)O)=C(C2CCC(C)CC2)C1 (stereo not shown) [Example 018]", "HCV1b NS5B polymerase delta 21 (Hepatitis C virus genotype 1b, UniProt P26663)", "IC50", "3 to 10 µM"),
    ("CC1CCC(C2=C(c3cc(I)sc3C(=O)O)CNCC2)CC1 (stereo not shown) [Example 171]", "HCV1b NS5B polymerase delta 21 (Hepatitis C virus genotype 1b, UniProt P26663)", "IC50", "> 10 µM"),
    ("CCN1CCC(c2cc(-c3ccc(C(=O)O)cc3)sc2C(=O)O)=C(C2CCC(C)CC2)C1 (stereo not shown) [Example 035]", "HCV1b NS5B polymerase delta 21 (Hepatitis C virus genotype 1b, UniProt P26663)", "IC50", "< 3 µM"),
    ("CC1CCC(C2=C(c3cc(-c4ccc(NC(=O)c5cscn5)cc4)sc3C(=O)OCCN(C)C)CCN(C)C2)CC1 (stereo not shown) [Example 103]", "HCV1b NS5B polymerase delta 21 (Hepatitis C virus genotype 1b, UniProt P26663)", "IC50", "< 3 µM"),
]

---

SYSTEM NAME: HCV1b NS5B polymerase delta 21 (Hepatitis C virus genotype 1b, UniProt P26663)
Construct: purified HCV1b NS5B polymerase delta 21
PROTOCOL TEXT: RNA-Dependent RNA HCV NS5B (Polymerase) Assay and IC50 Determination
Assay type: biochemical
Reported values of IC50 for individual entries

# MOLECULE, IC50
data = [
    ("CC1CCC(C2=C(c3cc(-c4ccccc4)sc3C(=O)O)CCN(CCCO)C2)CC1 (centres unmarked) [Example 008]", "< 3 µM"),
    ("CC(=O)N1CCC(c2cc(-c3ccccc3)sc2C(=O)O)=C(C2CCC(C)CC2)C1 (centres unmarked) [Example 071]", "< 3 µM"),
    ("CC1CCC(C2=C(c3cc(-c4ccccc4)sc3C(=O)O)CCN(Cc3nc4ncccn4n3)C2)CC1 (centres unmarked) [Example 092]", "3 to 10 µM"),
    ("CC1CCC(C2=C(c3cc(-c4ccccc4)sc3C(=O)O)CCN(C(C)C)C2)CC1 (centres unmarked) [Example 009]", "3 to 10 µM"),
    ("CC1CCC(C2=C(c3cc(-c4ccccc4)sc3C(=O)O)CCNC2)CC1 (centres unmarked) [Example 040]", "< 3 µM"),
    ("CC1CCC(C2=C(c3cc(C#CC(C)(C)C)sc3C(=O)O)CN(CC3CCOCC3)CC2)CC1 (centres unmarked) [Example 065]", "< 3 µM"),
    ("CC1CCC(C2=C(c3cc(-c4ccccc4)sc3C(=O)O)CCN(CC(=O)O)C2)CC1 (centres unmarked) [Example 082]", "3 to 10 µM"),
    ("CC1CCC(C2=C(c3cc(C#CC(C)(C)C)sc3C(=O)O)CCN(Cc3ccccn3)C2)CC1 (centres unmarked) [Example 127]", "< 3 µM"),
]
